Biological target: T1, 4H909-AA
T1 chain: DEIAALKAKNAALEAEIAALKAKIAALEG
Assay: two-hybrid library CCmax;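 further: natural log of median RNA to DNA barcode read ratio; higher means stronger binding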
Settings: mean of both orientations
experimental-endpoint: interaction score

// known answers, use as guide
[[record]]
binder = "DKNAALEAEIAALEAKIAALKAKNAALKG [4H3120-AA]"
experimental_endpoint = "interaction score"
result = -1.58

[[record]]
binder = "DEIAALEAKNAALKAKIAALEAKIAALEG [4H485-AA]"
experimental_endpoint = "interaction score"
result = -0.153

[[record]]
binder = "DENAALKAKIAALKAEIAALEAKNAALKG [4H1864-AA]"
experimental_endpoint = "interaction score"
result = -1.38


// input: 3 binders below; output: interaction score for each
1. DKNAALEAKIAALKAENAALEAEIAALKG [4H3410-AA]
2. DKNAALEAEIAALKAENAALKAKIAALEG [4H3165-AA]
3. DEIAALEAKIAALEAKNAALEAKIAALKG [4H310-AA]

-1.45
-1.43
-1.39
